This collection of values is drawn from patent US20130230519A1.

# Experimental Target: T1, mouse serum albumin (mouse, UniProt P07724 25-608)
# T1 construct: mature; Bought purified serum protein; also called MSA; mouse SA
# Test Name: SPR (BIAcore), purified dAb
pKd: −log10 of the molar value.
Recorded Metric: pKd

[a] DOM7h-14-116 (other, pDOM5 myc tag not included) VL: DIQMTQSPSSLSASVGDRVTITCRASQWIGSQLSWYQQKPGKAPKLLIMWRSALQSGVPSRFSGSGSGTDFTLTISSLQPEDFATYYCAQGLRYPKTFGQGTKVEIKW
[b] DOM7h-14-56 (other, pDOM5 myc tag not included) VL: DIQMTQSPSSLSASVGDRVTITCRASQWIGSQLSWYQQKPGKAPMLLIMWSSSLQSGVPSRFSGSGSGTDFTLTISSLQPEDFATYYCAQGLRHPKTFGQGTKVEIKW
Hi there! Just curious which has the higher pKd between a and b . Use the label to indicate which entry you chose.
b
